TEST SYSTEM: T1, CH2-4 constant domains of human IgE linked to a transmembrane protein, on 293 cells (human, UniProt P01854-1 104-428)
T1 construct: domain: CH2-4 constant domains; also called human IgE-expressing 293 cells
T1 sequence (P01854 other isoform, or with tags, fused parts or gaps): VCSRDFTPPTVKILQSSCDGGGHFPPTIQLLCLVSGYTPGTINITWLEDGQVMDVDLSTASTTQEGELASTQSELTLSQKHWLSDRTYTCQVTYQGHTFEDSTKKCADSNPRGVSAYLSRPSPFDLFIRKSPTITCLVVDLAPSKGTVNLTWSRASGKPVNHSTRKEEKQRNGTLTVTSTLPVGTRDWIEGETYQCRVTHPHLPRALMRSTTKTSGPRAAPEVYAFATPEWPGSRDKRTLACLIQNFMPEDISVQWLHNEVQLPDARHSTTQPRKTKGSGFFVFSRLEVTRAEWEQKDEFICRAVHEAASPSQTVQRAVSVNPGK
TEST SUMMARY: flow cytometry, 293 cells expressing human IgE CH2-4
MEASURED ENDPOINT: pKd
Numbers only, as −log10 of the molar value.

BINDER	OBSERVED RESULT
hzB10v32-NNT (Fc fusion, monomeric) VHH-Fc: EVQLLESGGGEVQPGGSLRLSCVASGLTFSSYNMGWVRQAPGKEREFVGLSGSSSTSTYYAESVKGRFTISRDNSKNTVYLQMNSLRAEDTAVYYCAARRLLSTYWSDRSWDFWGQGTQVTVEPGGPSVFLFPPKPKDTLMISRTPEVTCVVVDVSHEDPEVKFNWYVDGVEVHNAKTKPREEQYNSTYRVVSVLTVLHQDWLNGKEYKCKVSNKALPAPIEKTISKAKGQPREPQVYTLPPSRDELTKNQVNLTCLVKGFYPSDIAVEWESNGQPENNYKTTPPVLDSDGSFFLNSTLTVDKSRWQQGNVFSCSVMHEALHNHYTQKSLSLSPGK	8.88

Now consider a different binder.
QUERY: Name the reported pKd value associated with the binder hzB10v33-NNT (Fc fusion, monomeric) VHH-Fc: EVQLLESGGGEVQPGGSLRLSCVASGLTFSSYNMGWLRQAPGKEREFVSLSGSSSTSTYYAESVKGRFTISRDNSKNTVYLQMNSLRAEDTAVYYCAARRLLSTYWSDRSWDFWGQGTQVTVEPGGPSVFLFPPKPKDTLMISRTPEVTCVVVDVSHEDPEVKFNWYVDGVEVHNAKTKPREEQYNSTYRVVSVLTVLHQDWLNGKEYKCKVSNKALPAPIEKTISKAKGQPREPQVYTLPPSRDELTKNQVNLTCLVKGFYPSDIAVEWESNGQPENNYKTTPPVLDSDGSFFLNSTLTVDKSRWQQGNVFSCSVMHEALHNHYTQKSLSLSPGK
RESULT: 8.71
